Details: 323.15 K; 20000 kPa; Liquid
± gives the expanded uncertainty stated by the source.
PROPERTY: mass density
Output should be the measured figure followed by the unit it is expressed in.

For each of the molecules below, state mass density.
1. CCCCCCCCCCCCCC[P+](CCCCCC)(CCCCCC)CCCCCC.[Br-] [tetradecyltrihexylphosphonium bromide]
2. CCCCCCCCCCCCCC[P+](CCCCCC)(CCCCCC)CCCCCC.CS(=O)(=O)[O-] [trihexyltetradecylphosphonium methanesulfonate]
3. CCCCCCCCCCCCCC[P+](CCCCCC)(CCCCCC)CCCCCC.O=S(=O)([N-]S(=O)(=O)C(F)(F)F)C(F)(F)F
4. CCCCCCCCCCCCCC[P+](CCCCCC)(CCCCCC)CCCCCC.N#C[N-]C#N [tetradecyl(trihexyl)phosphonium dicyanamide]

RESULT:
1. 949.7 ± 0.9 kg/m3
2. 925.2 ± 1.1 kg/m3
3. 1061 ± 1.1 kg/m3
4. 894.4 ± 1.4 kg/m3

QUERY: # input molecule: CCCCCCCCCCCCCC[P+](CCCCCC)(CCCCCC)CCCCCC.[Cl-] [trihexyl(tetradecyl)phosphonium chloride] ; wanted: its mass density
RESULT: 885.3 ± 1.5 kg/m3
